Test system: SK-OV-3 ovarian
Assay: NCI tumour cell line growth inhibition, 48 h; in the data active = GI50 below about 0.43 µM; inactive = the rest
Result category, one only: 1.0 for active, 0.0 for inactive

The examples below pair each entry with its known result.
{"compound": "COc1cc2c(c(OC)c1OC)-c1c(c3ccc([N+](=O)[O-])cc3c(=O)n1CCCBr)C2=O", "label": 0.0}
{"compound": "COc1ccc(-c2cc(-c3ccc(OC)cc3)nc(NCCCNc3ccnc4cc(Cl)ccc34)n2)cc1", "label": 0.0}
{"compound": "COc1cc2c(cc1O)c(=O)n(CCN(C)C)c1c3cc4c(cc3ncc21)OCO4", "label": 1.0}
{"compound": "O=C(Nc1n[nH]c2nc(-c3ccc(O)cc3)c(Br)cc12)C1CC1", "label": 0.0}
{"compound": "Cc1ccc(-c2nc(/C=N/Nc3cc(C)nc4ccc(Br)cc34)c(C)o2)cc1", "label": 0.0}

query: Recorded test call requested for `O=c1oc2ccc(Cl)cc2c(=O)n1-c1ccc(F)cc1F`
result: 0.0

----------
Tested on: SN12C renal
Test: NCI tumour cell line growth inhibition, 48 h; in the data active = GI50 below about 0.43 µM; inactive = the rest
Result category, one only: t = active, f = inactive

The examples below pair each entry with its known result.
{"compound": "O=C1c2cc3c(cc2-c2c1c1ccc(F)cc1c(=O)n2C[C@H](O)[C@H](O)[C@H](O)CO)OCO3", "label": "t"}
{"compound": "CC(C)CCCCCCCCCCCCC(=O)NCC(=O)NC1C(C)OC(Nc2ncnc3nc[nH]c23)C(O)C1O (centres undefined)", "label": "t"}
{"compound": "O=c1oc2ccc(Cl)cc2c(=O)n1-c1ccc(F)cc1F", "label": "f"}
{"compound": "CC[C@H]1CCC/C=C/[C@@H]2C[C@H](O)C[C@H]2[C@H](O)/C=C/C(=O)O1", "label": "t"}
{"compound": "C/C(CC(C)(C)N1CC1)=N\\NC(=O)Nc1cccc2ccccc12", "label": "f"}

query: Recorded test call requested for `O=C1c2ccccc2C(=O)c2c1oc1c2c(=O)[nH]c2ccc(Cl)cc21`
result: t

query: Recorded test call requested for FC(F)(F)c1cc(NC(=S)N2c3ccccc3-n3cccc3C2c2cccnc2)cc(C(F)(F)F)c1 (centres undefined)
result: f

query: Recorded test call requested for `CC(=O)Nc1ccc(OC(C)=O)cc1`
result: t

query: Recorded test call requested for Cc1ccc2[nH]c(C(=O)NN3C(=O)C(C)SC34CCC(C)CC4)c(-c3ccccc3)c2c1 (centres undefined)
result: f

----------
Parameter: TGI. Scope: all listed entries.
Test system: SK-MEL-2 melanoma
Assay: NCI tumour cell line growth inhibition, 48 h
Give the number; µM is assumed, so skip it.

Previously resolved entries follow.
{"compound": "O=c1oc2ccc(Cl)cc2c(=O)n1-c1ccc(F)cc1F", "TGI / µM": 3.97}
{"compound": "COc1ccc2c(c1)C(=O)c1c-2c(N2CCN(C(=O)CCNCCNCCN)CC2)nc2ccccc12", "TGI / µM": 37}

query: Look up TGI for this compound: C/C(=C\C(C[C@](C)(O)C(O)CCC#C[Si](C)(C)C)S(=O)(=O)c1ccccc1)CC/C=C/CO[Si](C)(C)C(C)(C)C (stereo partly specified)
result: 44.1

----------
Tested on: HOP-62 NSCLC
Test: NCI tumour cell line growth inhibition, 48 h
reported endpoint: TGI

Previously resolved entries follow.
{"compound": "COc1ccc(NC(=O)C(C#N)=C(SC)SC)cc1", "TGI": "> 100 µM"}
{"compound": "FC(F)(F)c1cc(NC(=S)N2c3ccccc3-n3cccc3C2c2cccnc2)cc(C(F)(F)F)c1 (stereo unspecified)", "TGI": "21.7 µM"}
{"compound": "O=C(O)CCSC(=O)Nc1cccc2ccccc12", "TGI": "> 100 µM"}

query: Look up TGI for this compound: `CC1(C)CCc2c(c(N=Nc3ccccc3F)c3ccccc3c2O)O1`
result: > 100 µM

query: Look up TGI for this compound: CC(=O)OC12CC[N+]3(C)CCCCC3C1=Nc1ccccc12 (stereo unspecified)
result: > 100 µM

query: Look up TGI for this compound: CN/N=C(\C)C(CN1CCCCC1)C(C1=C(O)c2ccccc2OC1)c1ccccc1 (stereo unspecified)
result: > 100 µM

query: Look up TGI for this compound: `c1cc(C2=NCCO2)c2ccsc2c1`
result: > 100 µM

query: Look up TGI for this compound: `CCOP(=O)(Nc1ccc(-c2ccc(N)cc2)cc1)OCC`
result: > 100 µM

query: Look up TGI for this compound: `CC[C@]12C=CCN3CC[C@@]4(c5ccc(OC)cc5N(C)[C@H]4[C@@](O)(C(=O)OC)[C@@H]1OC(=O)CCC(=O)O[C@H]1CC[C@H]4[C@@H]5CC[C@H]6CC(=O)CC[C@]6(C)[C@H]5CC[C@]14C)[C@@H]32`
result: > 100 µM

query: Look up TGI for this compound: `N#Cc1ccc([N+](=O)[O-])cc1NC(N)=S`
result: > 100 µM

query: Look up TGI for this compound: `COc1ccc(CNCCCN2C(=O)c3ccc4c5c(ccc(c35)C2=O)C(=O)N(CCCNCc2ccc(OC)c(OC)c2OC)C4=O)c(OC)c1OC`
result: 0.729 µM

query: Look up TGI for this compound: `Cc1cc2c(=O)c(C)n[nH]c2c(C#N)c1C`
result: > 100 µM

query: Look up TGI for this compound: `C#CC(C)(C)OCCCCOc1cc(O)c2c(=O)c3ccccc3n(C)c2c1`
result: > 100 µM

query: Look up TGI for this compound: `Cc1ccc(/C=N/NS(=O)(=O)c2ccccc2)cc1C`
result: > 100 µM

query: Look up TGI for this compound: `COC(=O)CCC(=O)c1ccc2c(c1)CC1(C2)Cc2ccc(C(=O)CCC(=O)OC)cc2C1`
result: > 100 µM

query: Look up TGI for this compound: CSc1ccc2c(cc1=O)C(NC(=O)c1ccccc1)CCc1cc(O)c(O)c(O)c1-2 (stereo unspecified)
result: 57.8 µM

query: Look up TGI for this compound: CC(C)(C)OC(=O)NCCC1CNc2ccccc21 (stereo unspecified)
result: > 100 µM

query: Look up TGI for this compound: `O=C(Nc1ccccc1)c1cc(S(=O)(=O)N2CCNC2=O)c(S)cc1Cl`
result: > 100 µM

query: Look up TGI for this compound: `[N-]=[N+]=Nc1c(-c2ccccc2)c(=O)n(-c2ccccc2)c2ccccc12`
result: > 100 µM

query: Look up TGI for this compound: `COc1ccc(-c2cc(-c3ccc(OC)cc3)nc(NCCCNc3ccnc4cc(Cl)ccc34)n2)cc1`
result: 3.06 µM

query: Look up TGI for this compound: `CS(=O)(=O)NNS(=O)(=O)c1ccc(F)cc1`
result: > 100 µM

----------
Tested on: KM12 colon
Experiment: NCI tumour cell line growth inhibition, 48 h
reported endpoint: TGI

Previously resolved entries follow.
{"compound": "CCCCc1nc(C)oc1C(C)C", "measured": "> 100 µM"}
{"compound": "O=C(c1ccc2ccccc2c1)c1c(C(F)(F)F)n([O-])c2cc(C(F)(F)F)ccc2[n+]1=O", "measured": "3.22 µM"}
{"compound": "Cc1ccc(N=C2OP(=O)(Nc3ccc(C)cc3)Oc3ccccc32)cc1 (stereo not given)", "measured": "> 100 µM"}
{"compound": "O=C1NC(=O)C(C(c2ccc([N+](=O)[O-])cc2)C2C(=O)NC(=O)NC2=O)C(=O)N1", "measured": "> 100 µM"}
{"compound": "CC[C@@H]1CSC(/C=C/C2OC3OC(C)(C)OC3C3OC(C)(C)OC23)=N1 (stereo not given in full)", "measured": "33.3 µM"}

Lab note: next compound to report on.
query: Look up TGI for this compound: `Cc1ccc(/C=N/NS(=O)(=O)c2ccccc2)cc1C`
result: > 100 µM

----------
Parameter: TGI. Scope: all listed entries.
Test system: SR leukemia
Experiment: NCI tumour cell line growth inhibition, 48 h

Previously resolved entries follow.
{"molecule": "CCOC(=O)[C@@]1(C(C)=O)CC(C)=C(C)C[S@]1=O", "system name": "SR leukemia", "TGI": "> 100 µM"}
{"molecule": "CC1=C[C@H]([C@H]2C=C(C)C(C(N)=O)=CN2Cc2c(Cl)cccc2Cl)N(Cc2c(Cl)cccc2Cl)C=C1C(N)=O", "system name": "SR leukemia", "TGI": "> 75 µM"}
{"molecule": "CCCCCCCC(=O)OCC1OC(n2cc(F)c(=O)[nH]c2=O)C(N)C(O)C1O (stereo not given)", "system name": "SR leukemia", "TGI": "> 100 µM"}

query: Look up TGI for this molecule: `CN(C)CCN(C)C(=O)c1cccc2cccc(C(=O)O)c12`
result: > 100 µM

query: Look up TGI for this molecule: CC(=O)OC12CC[N+]3(C)CCCCC3C1=Nc1ccccc12 (stereo not given)
result: > 100 µM
